- Method: Inhibition of BMP6-stimulated hepcidin production in human HepG2 cells
Reported Property: IC50 (nM)

CC1(C)Cc2cc(C3CCNCC3)ccc2-c2ncnc(N)c21 :: 810
CC(=O)N1CCC(Oc2ccc3c(c2)CC(C)(C)c2c(N)ncnc2-3)CC1 :: 760
C=C(c1ccc2c(c1)CC(C)(C)c1c(N)ncnc1-2)[C@H]1CC[C@H](N(C)C)CC1 :: 110

(a) C=C(c1ccc2c(c1)CC(C)(C)c1c(N)ncnc1-2)[C@H]1CCC[C@H](N)C1
(b) CC1(C)Cc2cc(-c3ccccc3)ccc2-c2ncnc(N)c21
// compare measured IC50 between a and b ; output the lower one Respond using the label that marks the chosen record.
a

====

- Method: Tmax in C57BL/6J mouse at 30 mg/kg, po
- Type: ADME, organism-based
- Experimental Context: in vivo
Reported Property: Tmax (h)
// units = h; emit number, no label

I am curious: what Tmax value has been reported for C=C(c1ccc2c(c1)CC(C)(C)c1c(N)ncnc1-2)[C@H]1CC[C@H](N)CC1 ?
1.17

====

- Method: Inhibition of BMP6-stimulated hepcidin production in human HepG2 cells
Reported Property: IC50 (nM)

COC(=O)c1ccc2c(c1)CC(C)(C)c1c(N)ncnc1-2 :: 11000
Cc1cccc2c1-c1ncnc(N)c1C(C)(C)C2 :: 4700
CC1(C)Cc2cc(C(=O)C3CCNCC3)ccc2-c2ncnc(N)c21 :: 300
Cc1ccc2c(c1)CC(C)(C)c1c(N)ncnc1-2 :: 600
CC(c1ccc2c(c1)CC(C)(C)c1c(N)ncnc1-2)C1CCNCC1 (racemic) :: 73
CC(C)Oc1ccc2c(c1)CC(C)(C)c1c(N)ncnc1-2 :: 490

(P) Cc1ccc2c(c1)-c1ncnc(N)c1C(C)(C)C2
(Q) CC1(C)Cc2cc(OCCO)ccc2-c2ncnc(N)c21
(R) CC1(C)Cc2cc(OC3CCNCC3)ccc2-c2ncnc(N)c21
Rank descending by IC50. # the answer lists labels in the order requested
P, Q, R

====

- Method: Lipophilicity, logD of the compound
- Type: physicochemical
- Experimental Context: octanol/water
Reported Property: logD
Number, no unit, nothing else.

Can you share its logD? I mean this molecule: C=C(c1ccc2c(c1)CC(C)(C)c1c(N)ncnc1-2)[C@H]1CC[C@H](N)CC1
1.6

====

- Target Entity: UniProt Q13627
Reported Property: IC50 (µM)
Give the quantity in µM, number only.

Which IC50 reading was recorded for the compound Nc1ncnc2c1CCc1ccccc1-2 ?
57

====

- Method: Inhibition of BMP6-stimulated hepcidin production in human HepG2 cells
Reported Property: IC50 (nM)

CC1(C)Cc2ccccc2-c2ncnc(N)c21 :: 4500

(1) CCOc1ccc2c(c1)CC(C)(C)c1c(N)ncnc1-2
(2) CC1(C)Cc2cc(OC3CCNC3)ccc2-c2ncnc(N)c21 (configuration not stated)
(3) C=C(c1ccc2c(c1)CC(C)(C)c1c(N)ncnc1-2)C12CC(C1)C2
Sort the 3 compounds by IC50; largest first, smallest last. Please list each label once, in the requested order.
1, 2, 3

(1) COc1ccc2c(c1)CC(C)(C)c1c(N)ncnc1-2
(2) C=C(c1ccc2c(c1)CC(C)(C)c1c(N)ncnc1-2)C1CCNCC1
(3) C=C(c1ccc2c(c1)CC(C)(C)c1c(N)ncnc1-2)[C@H]1CC[C@H](NC)CC1
(4) Cc1cccc2c1CC(C)(C)c1c(N)ncnc1-2
(5) C=C(c1ccc2c(c1)CC(C)(C)c1c(N)ncnc1-2)[C@H]1C[C@H](N)C1
Rank descending by IC50. // rank by listing labels in the order requested
4, 1, 3, 5, 2

====

- Method: Protein binding in plasma (unknown origin) assessed as unbound fraction
- Assay type: ADME, cell-free
Reported Property: fraction unbound
No unit in the answer, only the number.

What does the data say about its fraction unbound? Entry: C=C(c1ccc2c(c1)CC(C)(C)c1c(N)ncnc1-2)[C@H]1CC[C@H](N)CC1
0.065

====

- Method: Clearance in C57BL/6J mouse at 30 mg/kg, po
- Format: ADME, organism-based
- Experimental Context: in vivo
Reported Property: CL/F (mL/min/kg)
Answer with a number only, understood to be in mL/min/kg.

Name the recorded CL/F for C=C(c1ccc2c(c1)CC(C)(C)c1c(N)ncnc1-2)[C@H]1CC[C@H](N)CC1 .
191

====

- Method: Half life in C57BL/6J mouse at 30 mg/kg, po
- Type: ADME, organism-based
- Experimental Context: in vivo
Reported Property: half-life (min)
Unit min implied. Number only.

Would you mind telling me what half-life value was observed for C=C(c1ccc2c(c1)CC(C)(C)c1c(N)ncnc1-2)[C@H]1CC[C@H](N)CC1 ?
275

====

- Method: Inhibition of BMP6-stimulated hepcidin production in human HepG2 cells
pIC50: −log10 of the molar value.
Reported Property: pIC50

CC1(C)Cc2cc(OCC(=O)O)ccc2-c2ncnc(N)c21 :: 4.96

(P) Nc1ncnc2c1C1(CCCC1)Cc1ccccc1-2
(Q) CC1(C)Cc2cc(OC3CCCNCC3)ccc2-c2ncnc(N)c21 (stereo unspecified)
Choose between P and Q : whose measured pIC50 value is numerically larger? Return value: the label identifying the chosen record.
Q
(Q: 6.62, P: 5.38)

====

compounds and their reported pIC50
- Method: Inhibition of BMP6-stimulated hepcidin production in human HepG2 cells
pIC50: −log10 of the molar value.

COc1ccc2c(c1)CC(C)(C)c1c-2noc1N :: < 4.52

Which pIC50 reading was recorded for the compound Oc1ncnc2c1C1(CCCC1)Cc1ccccc1-2 ?
< 4.52

Next: CNc1ncnc2c1C1(CCCC1)Cc1ccccc1-2
< 4.52

====

- Method: Inhibition of BMP6-stimulated hepcidin production in human HepG2 cells
pIC50: −log10 of the molar value.
Reported Property: pIC50

Check out these entries, answers already filled in.
COc1ccc2c(c1)CC(C)(C)c1c(N)n[nH]c1-2 :: < 4.52
C=C(c1ccc2c(c1)CC(C)(C)c1c(N)ncnc1-2)[C@H]1CC[C@H](N)CC1 :: 7.49

Record request: pIC50 value, item Nc1ncnc2c1CCc1ccccc1-2
< 4.52

====

- Method: Inhibition of BMP6-stimulated hepcidin production in human HepG2 cells
pIC50: −log10 of the molar value.
Reported Property: pIC50

Reference set, count: 2
COc1ccc2c(c1)CC(C)(C)c1c(N)nc(C)nc1-2 :: < 5.30
CN(C)c1ncnc2c1C1(CCCC1)Cc1ccccc1-2 :: < 4.52

API: the following record is the query input.
State the recorded pIC50 for this entry: c1ccc2c(c1)CC1(CCCC1)c1cncnc1-2
< 4.52

FYI, the data here is from ChEMBL document CHEMBL4673215.
